- Species: Rattus norvegicus
- MEASUREMENT NOTES: Open TG-GATES - Regimen: Single
- Type: toxicity, organism-based, Sprague-Dawley
- Set-up: regimen Single, gender Male, age 6 weeks
- MEASUREMENT PARAMETERS: in vivo, po, 0 mg/kg, 24 h, tissue Blood, route gavage, dose level Control
// values below are reported Plat
Respond numerically; units are x10_4/uL and should not be typed.

Some compounds with known Plat results, for comparison:
COMPOUND: CCN1CCCC1CNC(=O)c1cc(S(N)(=O)=O)ccc1OC (stereo unspecified) [SULPIRIDE]
Plat / x10_4/uL: 127.4
//
COMPOUND: CC(=N)S [THIOACETAMIDE]
Plat / x10_4/uL: 107.1

# context switch: different compound, same Plat
Report measured Plat; entry is C[C@](N)(Cc1ccc(O)c(O)c1)C(=O)O 113.1

* * *

- Species on record: Rattus norvegicus
- MEASUREMENT NOTES: Open TG-GATES - Regimen: Daily Repeat
- Format: toxicity, organism-based, Sprague-Dawley
- Parameters: regimen Daily Repeat, gender Male, age 6 weeks
- MEASUREMENT PARAMETERS: in vivo, po, 0 mg/kg, […], tissue Plasma, route gavage, dose level Control, time 7 day
Known TC of a selection of compounds
Please answer in the form of a number followed by its unit of measurement.

COMPOUND: O=C(O)c1cccnc1 [NIACIN]
VALUE TYPE: TC
RESULT: 78.6 mg/dL

Given Oc1ncnc2[nH]ncc12 [ALLOPURINOL] , respond with its TC. 68.2 mg/dL

State its TC for this compound: CCc1oc2ccccc2c1C(=O)c1cc(I)c(O)c(I)c1 [BENZIODARONE] 65 mg/dL

Identify measured TC corresponding to C[C@](N)(Cc1ccc(O)c(O)c1)C(=O)O [METHYLDOPA] 75.8 mg/dL

* * *

- Species: Rattus norvegicus
- MEASUREMENT NOTES: Open TG-GATES - Regimen: Daily Repeat
- Format: toxicity, organism-based, Sprague-Dawley
- Parameters: regimen Daily Repeat, gender Male, age 6 weeks
- MEASUREMENT PARAMETERS: in vivo, po, 1000 mg/kg, […], tissue Blood, route gavage, dose level High, time 28 day
VALUE TYPE: MCHC
Note to self: number, then unit, no commentary.

MOLECULE: O=C(N[C@H](CO)[C@H](O)c1ccc([N+](=O)[O-])cc1)C(Cl)Cl
MCHC: 34.1%
--
MOLECULE: CC(C)(S)[C@@H](N)C(=O)O
MCHC: 32.4%
--
MOLECULE: O=C(O)c1cccnc1
MCHC: 35.2%

Consider the additional molecule presented here.
Supply reported MCHC belonging to this molecule: CCN1CCCC1CNC(=O)c1cc(S(N)(=O)=O)ccc1OC (centres undefined) [SULPIRIDE] 34.7%

* * *

Reported MCHC is given for each of the following compounds.
- Organism: Rattus norvegicus
- MEASUREMENT NOTES: Open TG-GATES - Regimen: Single
- Type: toxicity, organism-based, Sprague-Dawley
- Parameters: regimen Single, gender Male, age 6 weeks
- MEASUREMENT PARAMETERS: in vivo, po, 0 mg/kg, 24 h, tissue Blood, route gavage, dose level Control
The reply should contain only the number, in %.

SMILES: CN1C(=O)OC(C)(C)C1=O
MCHC / %: 33

Specify MCHC for Oc1ncnc2[nH]ncc12 and stop. 33.6
